// data source = PubChem BioAssay AID504894

assay_comment: Activators of T cell receptors: qHTS campaign
run_parameters: primary human leukocytes, anti-CD3, IL-2 HTRF, 48 h; series mostly up to 9.22 µM
Among all 330,000 compounds or so, fewer than 10 were called active. The list is a sample of the results.

# compound, outcome
measured = [
    ("O=c1ccn([C@@H]2O[C@H](CNS(=O)(=O)c3cc4ccccc4s3)[C@@H](O)[C@H]2O)c(=O)[nH]1", "inactive"),
    ("COc1cccc2c1C(=O)c1c(O)c3c(c(O)c1C2=O)CC(O)(C(C)=NNC(=O)c1ccc(Cl)c(Cl)c1)CC3OC1CC(N)C(O)C(C)O1 (centres undefined)", "inactive"),
    ("O=C(c1cccc(S(=O)(=O)N2CCCCCC2)c1)N1CCN(Cc2ccccc2)CC1", "inactive"),
    ("C#CCOCCOCCOCCNc1nc(N2CCN(C(=O)Cn3cc(CCO)nn3)CC2)nc(N2CCN(C(=O)[C@H](CCCCN)n3cc(CCCC)nn3)CC2)n1", "inactive"),
]
